IC50 values recorded for KDR kinase (Homo sapiens (Human), UniProt P35968)

| sampleSmiles | IC50 |
| --- | --- |
| CCN1CCN(C(=O)Nc2ccc(Oc3ccnc(-c4cnn(C)c4)c3)c(C)n2)C1=O | > 10000 nM |
| Cn1cc(-c2cc(Oc3ccc(NC(=O)N4CCN(C5CCCCC5)C4=O)nc3)ccn2)cn1 | 670 nM |

Input line: Requested read-out IC50, target or system KDR kinase (Homo sapiens (Human), UniProt P35968), entry Cc1nc(NC(=O)N2CCN(C3CCCC3)C2=O)ccc1Oc1ccnc(-c2cnn(C)c2)c1
Output line: > 3300 nM

----------
# Tested on: osteoclast precursors
# experimentalProtocol: Osteoclast tartrate-resistant acid phosphatase assay
# Type: cell-based
# setupConditions: Osteoclast, 7-14 days, RANKL and M-CSF
pIC50: −log10 of the molar value.
pIC50 overview

The following compounds have reported results that may help.
| compound | measurementTarget | propertyMeasured | assayValue |
| --- | --- | --- | --- |
| CN1CCN(C(=O)Nc2ccc(Oc3ccnc(-c4cnn(C)c4)c3)cn2)C1=O [Example 44] | osteoclast precursors | pIC50 | 7.00 to 8.00 |
| Cn1cc(-c2cc(Oc3ccc(NC(=O)N4CCN(C5CC5)C4=O)nc3)ccn2)cn1 [Example 46] | osteoclast precursors | pIC50 | > 8.00 |

Now examine the next entry.
Input line: Fill in the recorded pIC50 for this compound, with osteoclast precursors as test system: CNC(=O)c1cc(Oc2ccc(NC(=O)N3CCN(C(C)(C)C)C3=O)nc2)ccn1 [Example 90]
Output line: 7.00 to 8.00

----------
Listing of recorded pIC50 by entry.
# measurementTarget: unphosphorylated c-FMS kinase (uFMS, Seq. ID no. 1) (Homo sapiens (Human))
# Sequence (P07333 538-972): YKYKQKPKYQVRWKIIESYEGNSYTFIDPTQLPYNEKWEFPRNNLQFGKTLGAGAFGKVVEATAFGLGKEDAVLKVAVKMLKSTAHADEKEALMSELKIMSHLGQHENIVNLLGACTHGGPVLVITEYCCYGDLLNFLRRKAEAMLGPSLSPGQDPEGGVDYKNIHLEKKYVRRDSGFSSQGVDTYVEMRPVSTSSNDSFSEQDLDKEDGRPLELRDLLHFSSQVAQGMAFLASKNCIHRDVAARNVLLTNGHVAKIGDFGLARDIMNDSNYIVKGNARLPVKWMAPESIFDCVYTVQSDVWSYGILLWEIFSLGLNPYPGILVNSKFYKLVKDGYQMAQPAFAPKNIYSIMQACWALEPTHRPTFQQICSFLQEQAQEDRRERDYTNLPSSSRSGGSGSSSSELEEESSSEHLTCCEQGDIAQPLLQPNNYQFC
# experimentalProtocol: uFMS kinase assay (ADP production coupled to pyruvate kinase/lactate dehydrogenase)
# Format: biochemical
# setupConditions: enzymatic assay, ATP 500 μM; read-out: uFMS
pIC50: −log10 of the molar value.

| sampleSmiles | pIC50 |
| --- | --- |
| COCCN1CCN(C(=O)Nc2ccc(Oc3ccnc(NC(=O)N(C)C)c3)cn2)C1=O | 7.00 to 8.00 |
| CCN1CCN(C(=O)Nc2ccc(Oc3ccnc(-c4cnn(C)c4)c3)cn2)C1=O | > 8.00 |
| COCCN1CCN(C(=O)Nc2ccc(Oc3ccnc(-c4cnc(C)s4)c3)c(C)n2)C1=O | 6.00 to 7.00 |
| COC1(CCN2CCN(C(=O)Nc3cc(Cl)c(Oc4ccnc(-c5cnn(C)c5)c4)cc3F)C2=O)CC1 | 7.00 to 8.00 |
| Cn1cc(-c2cc(Oc3ccc(NC(=O)N4CCN(C5CCCC5)C4=O)nc3)ccn2)cn1 | > 8.00 |
| Cc1c(Oc2ccnc(-c3cnn(C)c3)c2)ccc(NC(=O)N2CCN(C3CCOCC3)C2=O)c1F | 7.00 to 8.00 |
| Cc1nc(NC(=O)N2CCN(C(C)(C)C)C2=O)ccc1Oc1ccnc(-c2cnn(C)c2)c1 | > 8.00 |
| Cc1cc(-c2cc(Oc3ccc(NC(=O)N4CCN(C5CCOCC5)C4=O)nc3)ccn2)on1 | 7.00 to 8.00 |

Moving on to another molecule below.
Input line: Which pIC50 reading was recorded for the molecule Cn1cc(-c2cc(Oc3ccc(NC(=O)N4CCN(C5CCOCC5)C4=O)c(F)c3Cl)ccn2)cn1 ?
Output line: > 8.00

----------
# Tested on: osteoclast precursors
# experimentalProtocol: Osteoclast tartrate-resistant acid phosphatase assay
# Format: cell-based
# setupConditions: Osteoclast, 7-14 days, RANKL and M-CSF
propertyMeasured: IC50

Below, 3 molecules whose answers are already recorded.
| molecule | IC50 |
| --- | --- |
| Cn1cc(-c2cc(Oc3cc(F)c(NC(=O)N4CCN(C5COC5)C4=O)cc3Cl)ccn2)cn1 [Example 104] | 100 to 1000 nM |
| CCN1CCN(C(=O)Nc2ccc(Oc3ccnc(-c4ccc(C5CCN(C)CC5)cc4)c3)c(C)n2)C1=O [Example 61] | < 10 nM |
| CCc1nc(NC(=O)N2CCN(C3CCOCC3)C2=O)ccc1Oc1ccnc(-c2ccc(C)nc2)c1 [Example 63] | > 1000 nM |

Please find the next molecule below.
Input line: Looking for the measured IC50 of Cc1nc(NC(=O)N2CCN(C)C2=O)ccc1Oc1ccnc(-c2cnn(C)c2)c1 [Example 41] , can you help?
Output line: 10 to 100 nM

----------
# measurementTarget: unphosphorylated PDGFRβ kinase (uPDGFRβ, Seq. ID No. 3) (Homo sapiens (Human))
# Sequence (P09619 557-1106): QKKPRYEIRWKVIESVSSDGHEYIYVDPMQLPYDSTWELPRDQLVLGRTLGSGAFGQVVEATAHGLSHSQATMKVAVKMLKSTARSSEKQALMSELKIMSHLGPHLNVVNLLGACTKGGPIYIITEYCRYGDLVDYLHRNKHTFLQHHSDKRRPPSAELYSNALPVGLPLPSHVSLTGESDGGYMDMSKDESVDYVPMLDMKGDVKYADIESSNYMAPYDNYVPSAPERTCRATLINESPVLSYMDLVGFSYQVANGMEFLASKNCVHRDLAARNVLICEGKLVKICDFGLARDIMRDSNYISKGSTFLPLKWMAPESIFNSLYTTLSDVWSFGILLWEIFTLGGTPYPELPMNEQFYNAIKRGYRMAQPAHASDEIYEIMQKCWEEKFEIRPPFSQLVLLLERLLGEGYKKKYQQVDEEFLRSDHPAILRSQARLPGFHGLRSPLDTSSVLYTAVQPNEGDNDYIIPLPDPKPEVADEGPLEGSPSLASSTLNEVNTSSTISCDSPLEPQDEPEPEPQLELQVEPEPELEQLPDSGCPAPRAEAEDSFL
# experimentalProtocol: Unphosphorylated PDGFRβ kinase assay (coupled pyruvate kinase/lactate dehydrogenase)
# setupConditions: enzymatic assay, ATP 500 μM
propertyMeasured: IC50

Use the examples below as a reference point.
| molecule | measurementTarget | IC50 |
| --- | --- | --- |
| [2H]C([2H])([2H])n1cc(-c2cc(Oc3ccc(NC(=O)N4CCN([C@@H]5CCOC5)C4=O)nc3C)ccn2)cn1 | unphosphorylated PDGFRβ kinase (uPDGFRβ, Seq. ID No. 3) (Homo sapiens (Human)) | > 1 µM |
| CCN1CCN(C(=O)Nc2ccc(Oc3ccnc(-c4ccnc(C)c4)c3)c(C)n2)C1=O | unphosphorylated PDGFRβ kinase (uPDGFRβ, Seq. ID No. 3) (Homo sapiens (Human)) | > 1 µM |
| Cc1nc(NC(=O)N2CCN(C)C2=O)ccc1Oc1ccnc(-c2cnn(C)c2)c1 | unphosphorylated PDGFRβ kinase (uPDGFRβ, Seq. ID No. 3) (Homo sapiens (Human)) | > 1 µM |

Input line: Given CN(C)C(=O)Nc1cc(Oc2cc(F)c(NC(=O)N3CCN(C4CCOCC4)C3=O)cc2Cl)ccn1 , state its recorded IC50.
Output line: 0.1 to 1 µM

Input line: Quick one: IC50 for CCc1nc(NC(=O)N2CCN(C3CCOCC3)C2=O)ccc1Oc1ccnc(-c2cnn(C)c2)c1 ?
Output line: > 1 µM

Input line: Given Cn1cc(-c2cc(Oc3cc(F)c(NC(=O)N4CCN(C5CCCC5)C4=O)cc3Cl)ccn2)cn1 , state its recorded IC50.
Output line: > 1 µM

Input line: Param item = Cn1cc(-c2cc(Oc3cc(F)c(NC(=O)N4CCN(CCOC(F)(F)F)C4=O)cc3Cl)ccn2)cn1 ; retrieve measured IC50.
Output line: > 1 µM

Input line: // IC50 lookup, key: CCN1CCN(C(=O)Nc2ccc(Oc3ccnc(-c4cnn(C)c4)c3)c(C)n2)C1=O
Output line: > 1 µM

Input line: State the recorded IC50 for this entry: Cn1cc(-c2cc(Oc3ccc(NC(=O)N4CCN(C5CCOC5)C4=O)nc3)ccn2)cn1 (stereo in doubt)
Output line: > 1 µM

Input line: // IC50 lookup, key: Cn1cc(-c2cc(Oc3ccc(NC(=O)N4CCN(C5CCC(F)(F)CC5)C4=O)nc3)ccn2)cn1
Output line: 0.01 to 0.1 µM

Input line: Entry under review: CCc1nc(NC(=O)N2CCN(C3CC3)C2=O)ccc1Oc1ccnc(-c2cnn(C)c2)c1 . Reported IC50?
Output line: > 1 µM

Input line: Please look up its IC50: Cc1nc(NC(=O)N2CCN(C3CCCC3)C2=O)ccc1Oc1ccnc(-c2cnn(C)c2)c1
Output line: > 1 µM

Input line: For Cc1nc(NC(=O)N2CCN(C3CCC(F)(F)CC3)C2=O)ccc1Oc1ccnc(-c2cnn(C)c2)c1 , what is its reported IC50?
Output line: > 1 µM

Input line: Fill in the blank: the reported IC50 of Cn1cc(-c2cc(Oc3ccc(NC(=O)N4CCN(C5COC5)C4=O)nc3)ccn2)cn1 is ____.
Output line: > 1 µM

Input line: Tell me the measured IC50 of Cn1cc(-c2cc(Oc3ccc(NC(=O)N4CCN(C(C)(C)C)C4=O)nc3)ccn2)cn1 , please.
Output line: 0.01 to 0.1 µM

Input line: # lookup: IC50 of Cc1ccc(-c2cc(Oc3ccc(NC(=O)N4CCN(C5CCOCC5)C4=O)nc3)ccn2)cn1
Output line: 0.1 to 1 µM

Input line: Given the molecule Cc1cc(-c2cc(Oc3ccc(NC(=O)N4CCN(C5CCOCC5)C4=O)nc3)ccn2)ccn1 , what is its reported IC50?
Output line: > 1 µM

Input line: Param item = COCCN1CCN(C(=O)Nc2ccc(Oc3ccnc(NC(=O)N(C)C)c3)cn2)C1=O ; retrieve measured IC50.
Output line: > 1 µM

----------
IC50 values by entry
# Test system: osteoclast precursors
# experimentalProtocol: Osteoclast tartrate-resistant acid phosphatase assay
# Type: cell-based
# setupConditions: Osteoclast, 7-14 days, RANKL and M-CSF

See these solved cases before continuing.
| sampleSmiles | IC50 |
| --- | --- |
| COCCN1CCN(C(=O)Nc2ccc(Oc3ccnc(NC(=O)N(C)C)c3)cn2)C1=O | 10 to 100 nM |
| CCN1CCN(C(=O)Nc2ccc(Oc3ccnc(NC(C)=O)c3)c(C)n2)C1=O | 100 to 1000 nM |
| Cn1cc(-c2cc(Oc3ccc(NC(=O)N4CCN(C5CCC(F)(F)CC5)C4=O)nc3)ccn2)cn1 | < 10 nM |
| CCn1cc(-c2cc(Oc3ccc(NC(=O)N4CCN(C5CCOCC5)C4=O)nc3)ccn2)cn1 | 10 to 100 nM |
| CCN1CCN(C(=O)Nc2cc(C)c(Oc3ccnc(-n4cnc(C)c4)c3)cn2)C1=O | 10 to 100 nM |

Turning now to a further record.
Input line: Need IC50, item COCCN1CCN(C(=O)Nc2ccc(Oc3ccnc(-c4cnc(C)s4)c3)c(C)n2)C1=O
Output line: 100 to 1000 nM

Recorded values, source patent US9133183B2.
